Biological target: JAK2 (JH1 domain-catalytic, Y1007F, Y1008F) kinase (Homo sapiens (Human), UniProt O60674, Y1007F/Y1008F)
Sequence (O60674 849-1124 Y1007F/Y1008F): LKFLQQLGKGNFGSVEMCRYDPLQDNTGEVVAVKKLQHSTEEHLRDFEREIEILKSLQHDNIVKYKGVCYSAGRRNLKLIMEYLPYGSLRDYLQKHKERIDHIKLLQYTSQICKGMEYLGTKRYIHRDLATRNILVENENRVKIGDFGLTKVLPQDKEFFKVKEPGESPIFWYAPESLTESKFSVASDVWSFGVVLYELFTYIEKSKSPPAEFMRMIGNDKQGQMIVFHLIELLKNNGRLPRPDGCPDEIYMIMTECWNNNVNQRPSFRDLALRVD
Test: JAK2 JH1 Domain Binding Assay
Conditions: qPCR readout
Procedure: JAK2 (JH1 domain-catalytic, Y1007F, Y1008F) kinase was expressed as N-terminal fusion to the DNA binding domain of NFkB in transiently transfected HEK293 cells and subsequently tagged with DNA for qPCR detection. Streptavidin-coated magnetic beads were treated with biotinylated small molecule ligands for 30 minutes at room temperature to generate affinity resins for kinase assays. […] The kinase concentration in the eluate was measured by qPCR.
pKd: −log10 of the molar value.
METRIC: pKd

{"columns": ["SMILES_REPRESENTATION", "RESULT"],
 "data": [
  ["CN(C(=O)Nc1cc(C(F)(F)F)cn(C)c1=O)[C@@H]1CCN(c2cnc3[nH]c(=O)n(C)c3c2)C[C@@H]1F", "> 8.00"],
  ["CN(C(=O)Nc1cc(N2CCC(O)CC2)cc(C(F)(F)F)c1)C1CCN(c2cnccn2)CC1", "5.30 to 6.00"],
  ["Cc1cc(NC(=O)CC2CCN(c3cnccn3)CC2)cc(C(F)(F)F)c1", "5.30 to 6.00"],
  ["COc1c[nH]c2ncc([C@H]3CC[C@H](N(C)C(=O)Nc4cc(C(F)(F)F)cn(C)c4=O)CC3)nc12", "> 8.00"],
  ["CN(C(=O)Nc1cc(C(F)(F)F)cn(C)c1=O)[C@H]1CCN(c2cnc3cn[nH]c3c2)C[C@H]1F", "> 8.00"],
  ["CN(C(=O)Nc1cc(C(F)(F)F)cn(C)c1=O)C1CCN(c2cnc3cn[nH]c3c2)CC1", "> 8.00"],
  ["CNc1n[nH]c2ncc(N3CC[C@H](N(C)C(=O)Nc4cc(C(F)(F)F)cn(C)c4=O)[C@H](F)C3)cc12", "> 8.00"],
  ["COCc1cc2nc(N3CC[C@H](N(C)C(=O)Nc4cc(C(F)(F)F)cn(C)c4=O)[C@H](F)C3)cnc2[nH]1", "> 8.00"],
  ["CN(C(=O)Nc1cc(C(F)(F)F)cn(C)c1=O)[C@H]1CCN(c2cnc3[nH]nc(OC4CCOCC4)c3c2)C[C@@H]1F", "> 8.00"],
  ["CO[C@@H]1CN(c2cnc3[nH]cc(C)c3n2)CC[C@H]1N(C)C(=O)Nc1cc(C(F)(F)F)cn(C)c1=O", "7.30 to 8.00"]
]}
